- Test system: Mycolicibacterium vaccae
- experiment description: Antimycobacterial activity against Mycobacterium vaccae JMRC:STI:10670 assessed as inhibition of bacterial growth incubated for 42 hrs by broth microdilution method
- Type: functional

[
  {
    "compound": "C[C@H]1COC2(CCN(c3nc(=O)c4cc(C(F)(F)F)cc(NC(=O)C(C)(C)Br)c4s3)CC2)O1",
    "unit abbreviation": "µM",
    "MIC": 45.4
  },
  {
    "compound": "C=C=CC(=O)Nc1cc(C(F)(F)F)cc2c(=O)nc(N3CCC4(CC3)OC[C@H](C)O4)sc12",
    "unit abbreviation": "µM",
    "MIC": 107
  },
  {
    "compound": "C#CP(=O)(Nc1cc(C(F)(F)F)cc2c(=O)nc(N3CCC4(CC3)OC[C@H](C)O4)sc12)OCC (some centres not stated)",
    "unit abbreviation": "µM",
    "MIC": 12
  },
  {
    "compound": "C=CS(=O)(=O)Nc1cc(C(F)(F)F)cc2c(=O)nc(N3CCC4(CC3)OC[C@H](C)O4)sc12",
    "unit abbreviation": "µM",
    "MIC": 1.6
  },
  {
    "compound": "C[C@H]1COC2(CCN(c3nc(=O)c4cc(C(F)(F)F)cc(N5CCC5=O)c4s3)CC2)O1",
    "unit abbreviation": "µM",
    "MIC": 54.9
  },
  {
    "compound": "CC(Cl)C(=O)Nc1cc(C(F)(F)F)cc2c(=O)nc(N3CCC4(CC3)OC[C@H](C)O4)sc12 (some centres not stated)",
    "unit abbreviation": "µM",
    "MIC": 102
  },
  {
    "compound": "C[C@H]1COC2(CCN(c3nc(=O)c4cc(C(F)(F)F)cc([N+](=O)[O-])c4s3)CC2)O1",
    "unit abbreviation": "µM",
    "MIC": 0.004
  },
  {
    "compound": "CCOC(=O)C(=O)Nc1cc(C(F)(F)F)cc2c(=O)nc(N3CCC4(CC3)OC[C@H](C)O4)sc12",
    "unit abbreviation": "µM",
    "MIC": 49.8
  },
  {
    "compound": "C=C(C)C(=O)Nc1cc(C(F)(F)F)cc2c(=O)nc(N3CCC4(CC3)OC[C@H](C)O4)sc12",
    "unit abbreviation": "µM",
    "MIC": 26.6
  },
  {
    "compound": "C=C(F)C(=O)Nc1cc(C(F)(F)F)cc2c(=O)nc(N3CCC4(CC3)OC[C@H](C)O4)sc12",
    "unit abbreviation": "µM",
    "MIC": 13.2
  },
  {
    "compound": "COC(=O)C(=O)Nc1cc(C(F)(F)F)cc2c(=O)nc(N3CCC4(CC3)OC[C@H](C)O4)sc12",
    "unit abbreviation": "µM",
    "MIC": 51.3
  },
  {
    "compound": "C=CP(=O)(Nc1cc(C(F)(F)F)cc2c(=O)nc(N3CCC4(CC3)OC[C@H](C)O4)sc12)OCC (some centres not stated)",
    "unit abbreviation": "µM",
    "MIC": 6
  }
]

====

The entries below come with measured MIC values attached.
- Tested on: Mycolicibacterium smegmatis
- experiment description: Antimycobacterial activity against Mycobacterium smegmatis JMRC:STH:00056 assessed as inhibition of bacterial growth incubated for 42 hrs by broth microdilution method
- Assay type: functional
readout name: MIC (µM)

[
  {
    "compound": "C=C=CC(=O)Nc1cc(C(F)(F)F)cc2c(=O)nc(N3CCC4(CC3)OC[C@H](C)O4)sc12",
    "numeric readout": 107
  },
  {
    "compound": "C#CP(=O)(Nc1cc(C(F)(F)F)cc2c(=O)nc(N3CCC4(CC3)OC[C@H](C)O4)sc12)OCC (stereo partly drawn)",
    "numeric readout": 96.6
  },
  {
    "compound": "C=C(F)C(=O)Nc1cc(C(F)(F)F)cc2c(=O)nc(N3CCC4(CC3)OC[C@H](C)O4)sc12",
    "numeric readout": 106
  },
  {
    "compound": "CCOC(=O)C(=O)Nc1cc(C(F)(F)F)cc2c(=O)nc(N3CCC4(CC3)OC[C@H](C)O4)sc12",
    "numeric readout": 99.7
  },
  {
    "compound": "C[C@H]1COC2(CCN(c3nc(=O)c4cc(C(F)(F)F)cc(NC(=O)C(C)(C)Br)c4s3)CC2)O1",
    "numeric readout": 90.8
  },
  {
    "compound": "CC(Cl)C(=O)Nc1cc(C(F)(F)F)cc2c(=O)nc(N3CCC4(CC3)OC[C@H](C)O4)sc12 (stereo partly drawn)",
    "numeric readout": 102
  },
  {
    "compound": "COC(=O)C(=O)Nc1cc(C(F)(F)F)cc2c(=O)nc(N3CCC4(CC3)OC[C@H](C)O4)sc12",
    "numeric readout": 103
  },
  {
    "compound": "C=CS(=O)(=O)Nc1cc(C(F)(F)F)cc2c(=O)nc(N3CCC4(CC3)OC[C@H](C)O4)sc12",
    "numeric readout": 25.4
  }
]
